biological target: HuR full-length (human, UniProt Q15717 1-326); test: fluorescence polarization
Sequence (Q15717 whole entry): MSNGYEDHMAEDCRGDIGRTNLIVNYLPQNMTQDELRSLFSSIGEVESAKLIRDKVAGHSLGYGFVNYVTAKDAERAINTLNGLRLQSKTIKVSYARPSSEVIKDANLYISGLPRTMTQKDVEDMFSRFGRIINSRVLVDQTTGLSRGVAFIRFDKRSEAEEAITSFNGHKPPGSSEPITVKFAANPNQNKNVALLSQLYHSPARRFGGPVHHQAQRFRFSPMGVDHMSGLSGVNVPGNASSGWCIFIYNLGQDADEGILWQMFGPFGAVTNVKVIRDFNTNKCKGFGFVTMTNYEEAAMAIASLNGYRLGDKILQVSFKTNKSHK
pKd: −log10 of the molar value.
measure.name: pKd

INSERT INTO measurements (binder, result) VALUES
  ('GCUUUUAUUUAUUUUG (ssRNA) [Msi1-FITC (AREMsi1)]', '~8.52');
